Test system: MDA-MB-468
PROTOCOL_TEXT: Peptide array-whole cell binding assay
Type: cell-based
COND: peptide conjugated to cellulose membrane (amino-PEG500), no free C-terminus; cells 75 × 10^3 cells/mL, 37 °C, 4 h; CyQUANT fluorescence relative to peptide 1; spots in duplicate
Attribute: Relative Cell Adhesion MDA-MB-468
Output spec: single numeric token, no unit.

SEQUENCE	REPORTED
YHWYAYTPQNVI [Peptide 10]	1.3
YHWFGYTPQNVI [Peptide 29]	1.2
YHWYGYTPQKVI [Peptide 27]	1.2
WYGYTPQNVI [Peptide 21]	1.4
AHWYGYTPQNVI [Peptide 6]	1.2
YHWYGYTPQN [Peptide 19]	1.3
YHWYGYTPQNVA [Peptide 17]	1.4

--- query ---
Challenge: Request body: readout Relative Cell Adhesion MDA-MB-468, system MDA-MB-468, query FHWYGYTPQNVI [Peptide 28] . Return the value.
Response given: 1.2

The reported measurements were obtained from paper PMC6389950.
